Below, each entry is listed alongside its reported percent inhibition of AR.
test system: AR mRNA; test: Dose-dependent antisense inhibition of human AR in HuVEC cells (electroporation, qRT-PCR RTS3559, IC50); format: cell-based; conditions: 125.0 nM; HuVEC, ~16 h; Table 14
Oligonucleotides are written 5' to 3', each unit as a sugar letter and its base; * is a phosphorothioate linkage, no mark a phosphodiester; rarer units and linkages stand in square brackets, end groups in braces. Plain capitals give the bases only. e = 2'-O-(2-methoxyethyl) (MOE); k = constrained ethyl (cEt); [5mC] = 5-methylcytosine; d = 2'-deoxy (DNA)
observationType: percent inhibition of AR

>>> endpointresult("549458 (kG*kT*kT*dG*dA*dT*dT*dT*dA*dA*dT*dG*dG*kT*kT*kG) [compound 549458]")
"40%"
>>> endpointresult("560132 (antisense kG*kT*kT*dG*dA*dT*dT*dT*dA*dA*dT*dG*kG*kT*kT*eG) [compound 560132]")
"21%"
>>> endpointresult("560133 (antisense kA*kT*kG*dG*dT*dT*dG*dA*dT*dT*dT*dA*kA*kT*kG*eG) [compound 560133]")
"24%"
>>> endpointresult("569220 (antisense eA*kT*kG*kG*dT*dT*dG*dA*dT*dT*dT*dA*kA*kT*kG*eG) [compound 569220]")
"34%"
>>> endpointresult("569238 (antisense eG*kT*kT*kG*dA*dT*dT*dT*dA*dA*dT*kG*kG*kT*eT*eG) [compound 569238]")
"33%"
>>> endpointresult("569215 (antisense kT*kG*kG*dT*dT*dG*dA*dT*dT*dT*dA*dA*kT*kG*kG*eT) [compound 569215]")
"26%"
>>> endpointresult("569223 (antisense eG*eT*kT*kG*kA*dT*dT*dT*dA*dA*dT*dG*dG*kT*kT*kG) [compound 569223]")
"30%"
>>> endpointresult("569227 (antisense eT*eG*kA*kT*kT*dT*dA*dA*dT*dG*dG*dT*kT*kG*k[5mC]*eA) [compound 569227]")
"45%"
>>> endpointresult("549372 (kA*kA*kG*dT*dT*dG*dT*dA*dG*dT*dA*dG*dT*k[5mC]*kG*k[5mC]) [compound 549372]")
"31%"
>>> endpointresult("569229 (antisense eG*eT*kT*kG*kA*dT*dT*dT*dA*dA*dT*dG*kG*kT*kT*eG) [compound 569229]")
"36%"

###

test system: AR mRNA; assay: Dose-dependent antisense inhibition of human AR in HuVEC cells (electroporation, qRT-PCR RTS3559, IC50); type: cell-based; details: 1500.0 nM; HuVEC, ~16 h; Table 3
Oligonucleotides are written 5' to 3', each unit as a sugar letter and its base; * is a phosphorothioate linkage, no mark a phosphodiester; rarer units and linkages stand in square brackets, end groups in braces. Plain capitals give the bases only. k = constrained ethyl (cEt); [5mC] = 5-methylcytosine; d = 2'-deoxy (DNA)
observationType: percent inhibition of AR (%)

>>> endpointresult("549377 (kA*kG*kG*dA*dT*dG*dA*dG*dG*dA*dA*dG*d[5mC]*kG*kG*k[5mC]; antisense) [compound 549377]")
93
>>> endpointresult("549374 (kG*k[5mC]*kG*d[5mC]*dT*dG*d[5mC]*d[5mC]*dG*dT*dA*dG*dT*k[5mC]*k[5mC]*kA; antisense) [compound 549374]")
92
>>> endpointresult("549362 (k[5mC]*k[5mC]*k[5mC]*dG*dA*dA*dG*d[5mC]*dT*dG*dT*dT*d[5mC]*k[5mC]*k[5mC]*k[5mC]; antisense) [compound 549362]")
74
>>> endpointresult("549379 (kG*k[5mC]*kT*d[5mC]*d[5mC]*d[5mC]*dG*d[5mC]*d[5mC]*dT*d[5mC]*dG*d[5mC]*k[5mC]*kG*k[5mC]; antisense) [compound 549379]")
88
>>> endpointresult("549388 (kT*k[5mC]*k[5mC]*d[5mC]*dT*dT*d[5mC]*dA*dG*d[5mC]*dG*dG*d[5mC]*kT*k[5mC]*kT; antisense) [compound 549388]")
86
>>> endpointresult("549372 (kA*kA*kG*dT*dT*dG*dT*dA*dG*dT*dA*dG*dT*k[5mC]*kG*k[5mC]) [compound 549372]")
89
